Below, each entry is listed alongside its reported Toxicity: Ataxia (number of mice).
Tested on: mice
experimentalDetails: central nervous system toxicity observation in mice (ataxia, convulsions, loss of righting reflex, death)
Assay type: in vivo, mouse (female Swiss albino, Ham/ICR)
conditionsUsed: 100 mg/kg s.c., 10 mice, 20 min observation
Enter a number only.

1) CCN(CC)CC(=O)Nc1cc(OC)c(OC)cc1Cc1nccc2ccccc12 [Compound 6]	7
2) CCN(CC)CC(=O)Nc1c(Cc2nccc3ccccc23)ccc(OC)c1OC [Compound 3]	0
3) CCNCC(=O)Nc1cc(OC)c(OC)cc1Cc1nccc2cc(OC)c(OC)cc12 [Compound 2]	9

# lookup: Toxicity: Ataxia (number of mice) of COc1ccc(Cc2nccc3cc(OC)c(OC)cc23)cc1OC [Papaverine, reference compound]
2
